- protocol_text: Pharmacokinetic evaluation of compounds in mice
- Assay type: in vivo
- run_parameters: po, 50 mg/kg; CD-1 mouse (male), single gavage, 50 mpk, plasma; read-out: MRT0-inf
Where a name gives a salt, the structure may show the parent alone.
reported_metric: MRT inf (h)
Report only the number, with the unit h understood.

Please fill in: MRT inf reported for COc1cc(OC)c(Cl)c(-c2nc(-c3nc(-c4cn(C)nc4C)cnc3N)cn(C)c2=O)c1 [Trifluoroacetate salt of 0027] = 5.39

* * *

- tgt: FGFR3 (Homo sapiens, UniProt P22607)
- Construct: purchased Invitrogen PV3145
- Sequence (P22607 23-806): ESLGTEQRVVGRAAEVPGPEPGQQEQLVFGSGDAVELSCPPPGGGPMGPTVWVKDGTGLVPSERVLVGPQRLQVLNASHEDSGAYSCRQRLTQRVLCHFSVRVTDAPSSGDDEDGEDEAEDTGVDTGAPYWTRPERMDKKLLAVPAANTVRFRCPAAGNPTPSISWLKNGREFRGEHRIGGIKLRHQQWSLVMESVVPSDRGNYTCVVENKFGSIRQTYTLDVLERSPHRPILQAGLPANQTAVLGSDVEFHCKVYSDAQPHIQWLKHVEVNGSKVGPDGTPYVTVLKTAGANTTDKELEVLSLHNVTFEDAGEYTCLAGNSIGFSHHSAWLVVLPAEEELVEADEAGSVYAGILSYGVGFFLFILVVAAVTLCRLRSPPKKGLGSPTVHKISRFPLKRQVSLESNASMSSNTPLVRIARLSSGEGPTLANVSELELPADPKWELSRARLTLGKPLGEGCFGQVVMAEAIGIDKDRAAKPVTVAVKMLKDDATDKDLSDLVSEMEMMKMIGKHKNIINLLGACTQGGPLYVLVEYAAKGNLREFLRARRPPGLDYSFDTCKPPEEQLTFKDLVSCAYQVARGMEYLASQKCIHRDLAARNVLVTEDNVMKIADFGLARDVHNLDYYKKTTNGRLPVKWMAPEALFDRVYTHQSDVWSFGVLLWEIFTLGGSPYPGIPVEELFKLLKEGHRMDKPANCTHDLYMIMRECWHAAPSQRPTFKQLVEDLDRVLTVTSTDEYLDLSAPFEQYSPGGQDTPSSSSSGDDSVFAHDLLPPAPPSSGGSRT
- protocol_text: 33P isotope-labeled kinase activity test (Reaction Biology Corp), wild-type FGFR3
- Assay type: biochemical
- run_parameters: wild-type kinase, 33P-ATP 30 μM, substrate pEY + Mn, 120 minutes at room temperature
Counter-ions that a name gives are not always drawn.
Recorded IC50 for the following compounds
Unit nM implied. Number only.

COc1cc(OC)cc(-c2nc(-c3nc(-c4cn(CC(O)CC(F)(F)F)nc4C)cnc3N)cn(C)c2=O)c1 (single isomer, unassigned) [compound 0063] :: 12.3
COc1cc(OC)cc(-c2nc(-c3nc(-c4cnn(CCO)c4C)cnc3N)cn(C)c2=O)c1 :: 34.3
COc1cc(OC)cc(-c2nc(-c3nc(-c4cn(C5CCN(C)CC5)nc4C)cnc3N)cn(C)c2=O)c1 [Trifluoroacetate salt of 0016] :: 4.93

Data point: COc1cc(OC)cc(-c2nc(-c3nc(-c4ccc(C5CCN(C)CC5)nc4)cnc3N)cn(C)c2=O)c1 [Hydrochloride salt of 0036] ; IC50 = 1.81

Entry COc1cc(OC)cc(-c2nc(-c3nc(-c4cn(C)nc4C)cnc3N)cn(C)c2=O)c1 [Hydrochloride salt of 0023] ; IC50 = 29.8

Reported IC50 of COc1cc(OC)c(Cl)c(-c2nc(-c3nc(-c4cn(C)nc4C)cnc3N)cn(C)c2=O)c1 [Trifluoroacetate salt of 0027] : 0.69

Entry under test: COc1cc(OC)cc(-c2nc(-c3nc(-c4ccc(C5(C#N)CCC5)nc4)cnc3N)cn(C)c2=O)c1 . Its IC50 was 49.4

Record COc1cc(OC)cc(-c2nc(-c3nc(-c4cnn(CC(O)CC(F)(F)F)c4C)cnc3N)cn(C)c2=O)c1 (single isomer, unassigned) [compound 0065] , field IC50: 45.2

Just so you know, measured IC50 for COc1cc(OC)c(Cl)c(-c2nc(-c3nc(-c4ccc(C5CCN(C)CC5)nc4)cnc3N)cn(C)c2=O)c1 [Trifluoroacetate salt of 0060] came out at 0.944

Item: COc1cc(OC)cc(-c2nc(-c3nc(-c4cnc5c(c4)CC(=O)N5C)cnc3N)cn(C)c2=O)c1 [Hydrochloride salt of 0033] | IC50: 119

For record COc1cc(OC)c(F)c(-c2nc(-c3nc(-c4cn(C)nc4C)cnc3N)cn(C)c2=O)c1 [Trifluoroacetate salt of 0029] the listed IC50 is 1.54

Looking up COc1cc(OC)cc(-c2nc(-c3nc(-c4cn(CC(O)CC(F)(F)F)nc4C)cnc3N)cn(C)c2=O)c1 (single isomer, unassigned) [compound 0062] , I see its IC50 listed as 7.33

The measured IC50 associated with COc1cc(OC)cc(-c2nc(-c3nc(-c4cccnc4)cnc3N)cn(C)c2=O)c1 [Trifluoroacetate salt of 0018] reads 8.11
